B1: VTI1B (parent)
chain: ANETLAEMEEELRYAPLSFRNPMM

variants of: B1; assay: protein stability index of a GFP-peptide fusion (GPS, HEK-293T) (PSI 1-6); higher = more stable; conditions: c terminus: a fixed tail appended;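 also: lentivirally expressed fusions sorted by FACS into six bins by GFP to DsRed ratio, PSI derived from sequencing read proportions per bin multiplied by bin number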
Classify as follows. Reported protein stability index greater than or equal to 2: YES. Reported protein stability index below: NO.

[[record]]
variant_string = "M24V"
class_label = "YES"

[[record]]
variant_string = "E3D"
class_label = "YES"

[[record]]
variant_string = "L5T"
class_label = "YES"

[[record]]
variant_string = "A15W"
class_label = "YES"

[[record]]
variant_string = "E11L"
class_label = "YES"

[[record]]
variant_string = "P22L"
class_label = "YES"

[[record]]
variant_string = "M8G"
class_label = "YES"

[[record]]
variant_string = "A6R"
class_label = "YES"

[[record]]
variant_string = "A6I"
class_label = "NO"

[[record]]
variant_string = "E9L"
class_label = "YES"

[[record]]
variant_string = "S18M"
class_label = "YES"

[[record]]
variant_string = "N2S"
class_label = "NO"

[[record]]
variant_string = "L17F"
class_label = "NO"

[[record]]
variant_string = "P16V"
class_label = "NO"

[[record]]
variant_string = "P16T"
class_label = "YES"

[[record]]
variant_string = "E11F"
class_label = "NO"

[[record]]
variant_string = "R13M"
class_label = "YES"

[[record]]
variant_string = "M8P"
class_label = "YES"

